target: Stb4 (UniProt P50104); assay: PBM E-score (8-mer binding enrichment) (E-score (-0.5 to 0.5)); higher = stronger / more preferred TF binding; details: protein concentration: 200 nM; construct: GST-DNA-binding domain
Sequence (P50104 whole entry, the tested form may be a part): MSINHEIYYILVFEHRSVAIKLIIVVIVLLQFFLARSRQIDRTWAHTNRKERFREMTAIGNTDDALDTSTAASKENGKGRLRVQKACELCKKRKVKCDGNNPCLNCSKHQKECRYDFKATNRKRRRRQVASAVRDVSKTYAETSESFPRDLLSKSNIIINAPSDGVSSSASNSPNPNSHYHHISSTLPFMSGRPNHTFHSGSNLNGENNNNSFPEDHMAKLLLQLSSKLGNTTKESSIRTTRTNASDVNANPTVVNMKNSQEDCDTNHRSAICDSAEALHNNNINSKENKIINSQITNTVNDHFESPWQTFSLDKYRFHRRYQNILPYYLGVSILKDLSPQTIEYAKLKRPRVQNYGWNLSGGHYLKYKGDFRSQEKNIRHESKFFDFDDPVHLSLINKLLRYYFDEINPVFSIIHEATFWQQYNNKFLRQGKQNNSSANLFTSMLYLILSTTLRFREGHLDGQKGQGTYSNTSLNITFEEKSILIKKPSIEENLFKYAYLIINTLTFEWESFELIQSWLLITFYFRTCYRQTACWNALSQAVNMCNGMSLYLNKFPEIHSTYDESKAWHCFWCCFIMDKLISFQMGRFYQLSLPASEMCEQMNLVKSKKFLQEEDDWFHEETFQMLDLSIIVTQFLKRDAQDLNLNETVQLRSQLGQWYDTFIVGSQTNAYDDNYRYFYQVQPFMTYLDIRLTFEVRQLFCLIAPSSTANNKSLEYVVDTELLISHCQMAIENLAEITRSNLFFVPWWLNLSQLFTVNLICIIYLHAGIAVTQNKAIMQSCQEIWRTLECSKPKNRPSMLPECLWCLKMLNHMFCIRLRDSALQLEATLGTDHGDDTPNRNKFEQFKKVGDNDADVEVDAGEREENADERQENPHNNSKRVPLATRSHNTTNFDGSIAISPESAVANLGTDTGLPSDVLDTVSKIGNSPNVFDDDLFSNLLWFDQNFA
The full ranking holds about 33,000 sequences; the median of “E-score (-0.5 to 0.5)” is about -0.056, and the highest 2% start at about 0.38. This is one part of a sample in which the highest values are shown more often than they occur.
The label depends only on PBM E-score: Criterion met if it is at least 0.03, Criterion not met if it is smaller.

Reference set, count: 6
RESIDUE SEQUENCE	CAT
CTACCCGA	Criterion met
AGCATCCT	Criterion met
ATACCCTG	Criterion not met
GTACCCAA	Criterion not met
CCCCATCA	Criterion not met
ACGGCTAG	Criterion met

## Input Is PBM E-score at least 0.03? Consider `ATACCCCG`
## Output Criterion met

## Input Could you tell me if the measured PBM E-score of `AGCATCCG` reaches 0.03 or more?
## Output Criterion met

## Input Test whether the sequence `ATACCCGC` records PBM E-score of 0.03 or higher.
## Output Criterion met

---

target: Stb4 (UniProt P50104); assay: PBM E-score (8-mer binding enrichment) (E-score (-0.5 to 0.5)); higher = stronger / more preferred TF binding; details: protein concentration: 200 nM; construct: GST-DNA-binding domain
Over roughly 33,000 sequences, “E-score (-0.5 to 0.5)” has its median near -0.056; the highest 2% begin near 0.38. Many of the other results were omitted from the sample, so the highest values are more common in it than they were.
PROPERTY LABEL: PBM E-score
Reply: number alone, nothing else.

Reference set (10 entries):
RESIDUE SEQUENCE	PBM E-score
AAGTTCGG	0.421
TCTAAAAA	0.0389
AAGTTCGA	0.0503
GAAGGCGA	-0.051
CAGTTCGG	0.409
CAGTTCGC	-0.194
GAAACGTC	0.0218
CTGGTAGC	-0.224
TTGGCAAA	-0.183
AATCAGGC	-0.174

Turning now to a further sequence:
## Input Provide PBM E-score value for the following sequence: `ACCCCATC`
## Output -0.109

---

Reported PBM E-score is given for each of the following sequences.
target: Stb4 (UniProt P50104); assay: PBM E-score (8-mer binding enrichment) (E-score (-0.5 to 0.5)); higher = stronger / more preferred TF binding; conditions: protein concentration: 200 nM; construct: GST-DNA-binding domain
Whole data set: some 33,000 sequences, median “E-score (-0.5 to 0.5)” near -0.056, cut for the highest 2% near 0.38. What follows is part of a selection rich in the highest values, with near analogues and random picks from the rest.
Give only the figure.

## Input Name the recorded PBM E-score of the item `GTATCATA` in your answer.
## Output -0.0852

## Input For the sequence `AAAGCAAG` , report PBM E-score.
## Output 0.149

---

target: Stb4 (UniProt P50104); assay: PBM E-score (8-mer binding enrichment) (E-score (-0.5 to 0.5)); higher = stronger / more preferred TF binding; settings: protein concentration: 200 nM; construct: GST-DNA-binding domain
Whole data set: some 33,000 sequences, median “E-score (-0.5 to 0.5)” near -0.056, cut for the highest 2% near 0.38. The sample holds the highest values, similar sequences and a random draw of the others, so the mix is not that of the screen.
# label = bin(measured PBM E-score), where bins are low = under 0.05, medium = from 0.05 up to 0.3, high = 0.3 and over

RESIDUE SEQUENCE	CAT
AGGAAACA	low
CCACGGCG	low
TCTCGGCA	high
CCGGTCCC	medium
TCACGGCA	medium

## Input Band for `CCTCGGCG` ?
## Output high

## Input Please report the category associated with `ACTCGGCC` , nothing else.
## Output medium

## Input Lab note: sort `CGTACCGA` into the matching PBM E-score band.
## Output high

## Input Looking at `CGGAAACC` , which class would you pick?
## Output high

## Input # bin label for `CCGGTCCG`
## Output high

## Input Please indicate the class for `CGGAAACG` based on its PBM E-score.
## Output high
